Test: CEETOX_H295R_MTT_cell_viability: Viability Assessment in the CeeTox HT-H295R MTT Assay (AID 2283718)
Description: CEETOX_H295R is a cell-based, multiplexed-readout assay that uses H295R, a human adrenal gland cell line, with measurements taken at 48 hours after chemical dosing in a 96-well plate.CEETOX_H295R_MTT_cell_viability is one of 23 assay component(s) measured or calculated from the CEETOX_H295R assay. […]
Calls of active or inactive are those of the source. How the source made its calls: active means hit-call score of the fitted dose curve at least 0.9, where 1 is the maximum; inactive means score below 0.9.
Permitted responses: class 1 for active, class 0 for inactive

Use the examples below as a reference point.
> print(dat)
                                   compound  qualitative.label
1  CCOc1cc(Oc2ccc(C(F)(F)F)cc2Cl)ccc1[N+](=O)[O-]            class 0
2              CCCCOC(=O)c1ccccc1C(=O)OCCCC            class 0
3                        Oc1ccccc1-c1ccccc1            class 0
4  CCOC(=O)CC(SP(=S)(OC)OC)C(=O)OCC (configuration not stated)            class 0
5                      CCNc1nc(Cl)nc(NCC)n1            class 0
6  CCCCC(CC)COC(=O)c1ccccc1C(=O)OCC(CC)CCCC (configuration not stated)            class 0

Exam item: What classification did CC1COC(Cn2cncn2)(c2ccc(Oc3ccc(Cl)cc3)cc2Cl)O1 (configuration not stated) end up with in this test?
Marked response: class 1

Exam item: Status in this test for "CC1=C(C(=O)Nc2ccccc2)SCCO1" ?
Marked response: class 0

Exam item: Could you please tell me the result logged for "COP(=S)(OC)Oc1nc(Cl)c(Cl)cc1Cl" in this assay?
Marked response: class 0

Exam item: Each compound tested received a call. Report the one for N#CC(CCc1ccc(Cl)cc1)(Cn1cncn1)c1ccccc1 (configuration not stated) .
Marked response: class 0

Exam item: Hi, do you know how C=CCC1=C(C)C(OC(=O)C2C(C=C(C)C)C2(C)C)CC1=O (configuration not stated) came out in this test?
Marked response: class 1

Exam item: Which result was noted for this compound in the test: "COc1nc(NC(C)C)nc(NC(C)C)n1"
Marked response: class 0

---

test: CCTE_Mundy_HCI_hNP1_Pro_ResponderAvgInten: CCTE's Proliferation Assay in human neuroprogenitor cells, Mundy Lab (AID 2284224);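 further: human neural progenitor cells hNP1 derived from WA09 embryonic stem cells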
Inconclusive results are not listed. Active and inactive are the calls of the source. How the source made its calls: active means hit-call score of the fitted dose curve at least 0.9, where 1 is the maximum; inconclusive means response in the unintended direction; inactive means score below 0.9.
Valid outcomes are listed here; reply with one: yes (active), no (inactive)

> print(dat)
                                   molecule  qualitative.label
1  COC(=O)N(OC)c1ccccc1COc1ccn(-c2ccc(Cl)cc2)n1                yes
2  N#Cc1nn(-c2c(Cl)cc(C(F)(F)F)cc2Cl)c(N)c1S(=O)C(F)(F)F (centres undefined)                 no
3  C=CC1(C)OC(=O)N(c2cc(Cl)cc(Cl)c2)C1=O (centres undefined)                 no

Below: the item to evaluate.
Exam item: Record lookup: outcome of this test for "CCOc1cc(Oc2ccc(C(F)(F)F)cc2Cl)ccc1[N+](=O)[O-]" ?
Marked response: yes

---

read-out: ABC Transporter (ABCB11), ABCB11 (gene 8647); experiment: LTEA_HepaRG_ABCB11: Life Technologies and Expression Analysis (LTEA) Assay for ABC Transporter (ABCB11) using HepaRG (AID 2283463); conditions: mRNA level, 48 h; actives raise or lower the signal
Active and inactive are the calls of the source. The calls were made as follows: active = hit-call score of the fitted dose curve at least 0.9, where 1 is the maximum; inactive = score below 0.9.
Parameter call: string, one of True for active, False for inactive

> print(dat)
                                   compound  qualitative.label
1  COC(=O)N(OC)c1ccccc1COc1ccn(-c2ccc(Cl)cc2)n1               True
2  COc1cnc(OC)n2nc(NS(=O)(=O)c3c(OCC(F)F)cccc3C(F)(F)F)nc12              False
3         COP(N)(=O)SC (stereo unspecified)              False
4                        Oc1ccccc1-c1ccccc1              False
5  CCc1nn(C)c(C(=O)NCc2ccc(C(C)(C)C)cc2)c1Cl               True

Next compound, please.
Exam item: Tell me the recorded outcome of this test for C#CCOS(=O)OC1CCCCC1Oc1ccc(C(C)(C)C)cc1 (stereo unspecified) .
Marked response: True

---

read-out: Interferon-gamma inducible Protein 10 (IP10), CXCL10 (gene 3627); experiment: BSK_hDFCGF_IP10: BioMAP Diversity Plus: hDFCGF Assay for Interferon-gamma inducible Protein 10 (IP10) Biomarker Activity (AID 2283053); conditions: primary human foreskin fibroblasts; actives raise or lower the signal
Activity calls are given as the source filed them. The calls were made as follows: active = hit-call score of the fitted dose curve at least 0.9, where 1 is the maximum; inactive = score below 0.9.
Outcome (select one): Y for active, N for inactive

> print(dat)
                                   molecule  qualitative.label
1                      CCNc1nc(Cl)nc(NCC)n1                  N
2                O=C(O)COc1nc(Cl)c(Cl)cc1Cl                  N
3  COc1nc(C)nc(NC(=O)NS(=O)(=O)c2ccccc2Cl)n1                  N
4  CC(C)Oc1cc(-n2nc(C(C)(C)C)oc2=O)c(Cl)cc1Cl                  Y
5  OC(c1ccc(Cl)cc1)(c1cncnc1)c1ccccc1Cl (centres undefined)                  N

Exam item: Called result for "CNC(=S)S"
Marked response: Y

---

assay: TOX21_p53_BLA_p5_viability: Viability Assessment in the Tox21 HCT-116 p53 Agonism Beta-lactamase Assay, Phase 5 (AID 2283600)
Inconclusive results are not listed. The source made the active and inactive calls. The calls were made as follows: active = hit-call score of the fitted dose curve at least 0.9, where 1 is the maximum; inconclusive = response in the unintended direction; inactive = score below 0.9.
Respond with a class label; see YES = active, NO = inactive

Take a look at these entries with their results.
> print(dat)
                                   compound  qualitative.label
1  C=CCC1=C(C)[C@@H](OC(=O)[C@@H]2[C@@H](C=C(C)C)C2(C)C)CC1=O                 NO
2  Cc1ccc(-c2c(Cl)nc(C#N)n2S(=O)(=O)N(C)C)cc1                 NO
3  C=CC1(C)OC(=O)N(c2cc(Cl)cc(Cl)c2)C1=O (stereo unspecified)                 NO
4  CO/C=C(/C(=O)OC)c1ccccc1Oc1cc(Oc2ccccc2C#N)ncn1                 NO
5  CCOC(=O)CC(SP(=S)(OC)OC)C(=O)OCC (stereo unspecified)                 NO

Exam item: Lab log entry: "CCc1nn(C)c(C(=O)NCc2ccc(C(C)(C)C)cc2)c1Cl" — outcome as called in the assay?
Marked response: YES

Exam item: Hi, sorry to bother you, what did the test record for "COC(=O)C=C(C)OP(=O)(OC)OC" ?
Marked response: NO

Exam item: Any idea what this test logged for "CCOP(=S)(OCC)SCn1c(=O)oc2cc(Cl)ccc21" ?
Marked response: NO

Exam item: Which result was noted for this compound in the test: N#Cc1nn(-c2c(Cl)cc(C(F)(F)F)cc2Cl)c(N)c1S(=O)C(F)(F)F (stereo unspecified)
Marked response: NO

Exam item: Please state the recorded outcome for this compound: "CCCCNC(=O)OCC#CI"
Marked response: NO

Exam item: What is the recorded call for this compound in the test? "COC(=O)N(OC)c1ccccc1COc1ccn(-c2ccc(Cl)cc2)n1"
Marked response: NO

---

read-out: xenobiotic metabolism (CYP1A2), CYP1A2 (gene 1544); assay: CLD_CYP1A2_24hr: CellzDirect (CLD) Gene Expression Assay for xenobiotic metabolism (CYP1A2) at 24 hours (AID 2283683)
Results filed as inconclusive are left out. Calls of active or inactive are those of the source. How the source made its calls: active means hit-call score of the fitted dose curve at least 0.9, where 1 is the maximum; inconclusive means response in the unintended direction; inactive means score below 0.9.
// classify into y for active, n for inactive

Sample answers from the record:
> print(dat)
                                   molecule  qualitative.label
1  CCOc1cc(Oc2ccc(C(F)(F)F)cc2Cl)ccc1[N+](=O)[O-]                  y
2                O=C(O)COc1nc(Cl)c(Cl)cc1Cl                  n
3              CON(C)C(=O)Nc1ccc(Cl)c(Cl)c1                  y
4  CCCC1COC(Cn2cncn2)(c2ccc(Cl)cc2Cl)O1 (stereo not given)                  y
5  C=CC1(C)OC(=O)N(c2cc(Cl)cc(Cl)c2)C1=O (stereo not given)                  y

Exam item: Fill in: this test's call for "COc1ccc(C(c2ccc(OC)cc2)C(Cl)(Cl)Cl)cc1" is ___
Marked response: y

Exam item: Called result for "O=C(Nc1ccccc1)Nc1ccnc(Cl)c1"
Marked response: y

Exam item: Check the results log: what was the call for "COc1nc(NC(C)C)nc(NC(C)C)n1" ?
Marked response: y

Exam item: Per the assay record, what outcome was assigned to CC1COC(Cn2cncn2)(c2ccc(Oc3ccc(Cl)cc3)cc2Cl)O1 (stereo not given) ?
Marked response: y

Exam item: Hi team, can someone confirm the assay call for "CCCCNC(=O)OCC#CI" ?
Marked response: n
